- Test system: PIK3CA;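 further: KINOMEscan kinase panel screen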
- conditions: concentration: 1 μM, replicates: in singlicate; n = 1
measured-metric: %Inh (%)
Numbers only; they are read as %.

[
  {
    "molecule": "O=C1NC(=O)C(c2ccccc2)=C1Nc1cccc(O)c1",
    "%Inh (%)": 0
  },
  {
    "molecule": "CCc1ccc(-c2ccc3c(c2)-c2nn(C)cc2S(=O)(=O)N3C)cc1",
    "%Inh (%)": 0
  },
  {
    "molecule": "COc1cccc(C2=C(Nc3cccc(C(=O)O)c3)C(=O)NC2=O)c1",
    "%Inh (%)": 8
  }
]

Could you now look at the following molecule, please?
Q: Fill in %Inh for record `CCC(=O)c1c(-c2ccccc2)c2cc(Cl)ccc2c(=O)n1Cc1ccc(C(=O)O)cc1`
A: 0
